The measured values listed here are drawn from paper PMC10195817.

target: T1, NDP52-FL (Human, UniProt Q13137 1-446)
T1 sequence: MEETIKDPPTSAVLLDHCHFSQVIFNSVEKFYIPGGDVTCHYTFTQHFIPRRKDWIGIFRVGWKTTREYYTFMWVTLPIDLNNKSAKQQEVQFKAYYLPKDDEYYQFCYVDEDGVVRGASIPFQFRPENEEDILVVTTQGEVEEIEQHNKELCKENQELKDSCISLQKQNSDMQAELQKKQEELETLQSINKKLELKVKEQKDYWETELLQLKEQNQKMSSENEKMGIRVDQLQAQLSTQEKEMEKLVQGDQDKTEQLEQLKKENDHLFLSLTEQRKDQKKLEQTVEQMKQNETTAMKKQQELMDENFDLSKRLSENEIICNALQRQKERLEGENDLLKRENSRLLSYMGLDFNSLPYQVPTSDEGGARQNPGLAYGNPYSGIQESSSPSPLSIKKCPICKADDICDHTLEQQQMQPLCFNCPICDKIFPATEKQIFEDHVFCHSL
protocol-summary: fluorescence titration; Fluorescence: 100 nM DNA, 50 mM Tris-HCl pH 7.5, 150 mM NaCl, 1 mM DTT; EMSA: 50 mM Tris-HCl pH 7.5, 50 mM NaCl, 3 mM MgCl2, 5 min; temperature not stated
condition-context: protein: recombinant; tags: His-tag (pET151); chain copies: 2; label: 3' FAM (called FITC in Methods) on strand 1; blunt
pKd: −log10 of the molar value.
measurement-label: pKd

pKd for ds15 (dsDNA) DNA 1: TTAGTTGTTCTCTGG DNA 2: CCAGAGAACAACTAA ?
> 7.00
